Source listed as PubChem BioAssay AID1529.

Assay target: Mitogen-activated protein kinase kinase kinase 3 (Homo sapiens) (UniProt Q99759)
Sequence (Q99759 whole entry, looked up): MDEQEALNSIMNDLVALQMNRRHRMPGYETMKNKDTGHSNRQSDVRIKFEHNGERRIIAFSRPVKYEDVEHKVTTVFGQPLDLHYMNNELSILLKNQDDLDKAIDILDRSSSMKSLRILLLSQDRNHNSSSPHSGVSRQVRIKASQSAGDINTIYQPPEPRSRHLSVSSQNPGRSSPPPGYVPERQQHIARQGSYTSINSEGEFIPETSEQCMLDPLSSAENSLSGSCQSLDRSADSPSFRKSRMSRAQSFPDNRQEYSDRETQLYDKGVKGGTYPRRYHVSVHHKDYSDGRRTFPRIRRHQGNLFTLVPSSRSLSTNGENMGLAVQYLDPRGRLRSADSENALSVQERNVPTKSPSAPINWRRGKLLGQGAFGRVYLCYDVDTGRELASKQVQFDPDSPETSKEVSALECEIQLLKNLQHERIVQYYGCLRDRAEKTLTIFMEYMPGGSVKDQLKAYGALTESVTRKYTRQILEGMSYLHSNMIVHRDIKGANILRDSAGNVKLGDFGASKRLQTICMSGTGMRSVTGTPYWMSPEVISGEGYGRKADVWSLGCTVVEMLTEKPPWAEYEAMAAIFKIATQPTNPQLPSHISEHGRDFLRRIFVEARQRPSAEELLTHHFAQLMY
Protocol details: modulators of MEKK3-MEK5 PB1 binding, primary screen, biochemical, wildtype MEKK3, multiplex bead flow cytometry, Alexa488-MEK5 (AID 1529);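 also: Alexa488 bead fluorescence after subtracting the streptavidin-only scavenger bead signal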
Recorded conditions: bead-based flow cytometry, Alexa488-MEK5 binding to MEKK3; at 10 µM; actives lie on both sides; 0 = blocked by unlabeled MEK5, 100 = vehicle
In all, about 290,000 compounds went through this assay and about 4,200 (1.4%) were called active. The entries come from a sample that favours actives as a whole.
Hi there, I'd appreciate the recorded binding response (% of control) for every entry that follows.
Write it as a number; the unit % goes unstated.

Item: COCc1cc(C)nc2sc(C(=O)NC3CCCCC3)c(N)c12 | binding response (% of control): 101

Item: COc1cc2c(C(=O)N(C)c3cc(Cl)ccc3OC)cn(C)c(=O)c2cc1OC | binding response (% of control): 102

Item: C=CCSc1nnc2c(n1)-c1cccc3cccc-2c13 | binding response (% of control): 104

Item: Cc1ccc(Nc2nc(CSc3nnc(-c4ccncc4)n3-c3ccccc3C)cs2)cc1 | binding response (% of control): 138

Item: CCC(C)(C)NC(=O)C1c2ccccc2Oc2ccccc21 | binding response (% of control): 99

Item: Cc1nonc1C1CCCN1Cc1nc(-c2ccc(F)cc2F)oc1C (stereo unspecified) | binding response (% of control): 85
